The reported measurements were obtained from patent US20250296916A1.

- Tested on: rabbit skeletal myofibrils (approximately 90% fast fibers)
- EXPERIMENT NOTES: Activation of fast skeletal myofibrils (PUMA coupled-enzyme ATPase assay)
- Type: biochemical
- CONDITION LABEL: concentration at which the compound increased the enzymatic activity by 40%; calcium at pCa25; PM12 buffer pH 6.8
RESULT TYPE: AC1.4 (µM)

CCC[C@H]1C(=O)Nc2ccccc2N1C(=O)c1cnn(C)c1 | 0.13

P = CCC[C@H]1C(=O)Nc2cccc(Br)c2N1C(=O)c1ccc(Cl)nc1
Q = CCC[C@H]1C(=O)Nc2ccccc2N1C(=O)c1cnn(CC2CC2)c1
R = CCC[C@H]1C(=O)Nc2ccccc2N1C(=O)c1cncc(C)c1
S = CC(C)[C@H]1C(=O)Nc2ccccc2N1C(=O)c1cnc2[nH]ncc2c1
q: Sort by AC1.4, descending. Write the labels, ordered according to the request.
a: R, P, Q, S
(R: 1.41 µM, P: 0.72 µM, Q: 0.41 µM, S: 0.06 µM)

I = CC[C@H](C)[C@H]1C(=O)Nc2ccccc2N1C(=O)NC
II = CC[C@H](C)[C@H]1C(=O)Nc2cnccc2N1C(=O)c1cnn(C)c1
III = CCC[C@H]1C(=O)Nc2ccccc2N1C(=O)c1ccc(F)nc1
IV = CC[C@H](C)[C@H]1C(=O)Nc2ccccc2N1C(=O)c1cn[nH]c1
V = CCC[C@H]1C(=O)Nc2ccccc2N1C(=O)c1cn[nH]c1
q: Sort by AC1.4, descending. Write the labels, ordered according to the request.
a: III, I, V, II, IV

I = CC[C@H](C)[C@H]1C(=O)Nc2ccccc2N1C(N)=O
II = CC[C@H](C)[C@H]1C(=O)Nc2ccccc2N1C(=O)OC
q: Among I and II , whose measured AC1.4 is the smaller figure? Answer with the label corresponding to your selection.
a: I
(I: 0.87 µM, II: 1.25 µM)

###

- Tested on: rabbit skeletal myofibrils (approximately 90% fast fibers)
- EXPERIMENT NOTES: Activation of fast skeletal myofibrils (PUMA coupled-enzyme ATPase assay)
- Type: biochemical
- CONDITION LABEL: concentration at which the compound increased the enzymatic activity by 40%; calcium at pCa25; PM12 buffer pH 6.8
RESULT TYPE: AC1.4 (µM)

CCC[C@H]1C(=O)Nc2ccccc2N1C(=O)Nc1ccc(C)cc1 | 1.39
CC(C)[C@H]1C(=O)Nc2ccccc2N1C(=O)c1ccc(=O)n(C)c1 | 0.22
CCC[C@H]1C(=O)Nc2ccccc2N1C(=O)c1ccc(F)c(F)c1 | 0.07
CCC[C@H]1C(=O)Nc2ccc(Cl)cc2N1C(=O)c1cnn(C)c1 | 0.24
CCC[C@H]1C(=O)Nc2ccccc2N1C(=O)c1ccc(C)nc1 | 0.77
CCC[C@H]1C(=O)Nc2ccccc2N1C(=O)c1ccc(OC(F)(F)F)nc1 | 2.34

1 = CCC[C@H]1C(=O)Nc2ccc(Cl)cc2N1C(=O)c1ccc(Cl)nc1
2 = CCC[C@H]1C(=O)Nc2ccccc2N1C(=O)Nc1ccccc1F
3 = CC[C@H](C)[C@H]1C(=O)Nc2ccccc2N1C(=O)N1CC(CO)C1
4 = CCC[C@H]1C(=O)Nc2ccccc2N1C(=O)c1cnn(CCO)c1
q: Sort by AC1.4, descending. Write the labels, ordered according to the request.
a: 3, 4, 1, 2

###

- Tested on: rabbit skeletal myofibrils (approximately 90% fast fibers)
- EXPERIMENT NOTES: Activation of fast skeletal myofibrils (PUMA coupled-enzyme ATPase assay)
- Type: biochemical
- CONDITION LABEL: concentration at which the compound increased the enzymatic activity by 40%; calcium at pCa25; PM12 buffer pH 6.8
RESULT TYPE: AC1.4 (µM)

The examples below pair each entry with its known result.
CC[C@H](C)[C@H]1C(=O)Nc2ccccc2N1C(=O)NCCO [Compound 105] | 2.23
CC(C)[C@H]1C(=O)Nc2cnccc2N1C(=O)c1cnn(C)c1 [Compound 88] | 0.85

P = CC[C@H](C)[C@H]1C(=O)Nc2ccccc2N1C(=O)c1ccc(N)nc1 [Compound 74]
Q = CC[C@H](C)[C@H]1C(=O)Nc2ccccc2N1C(=O)N[C@H]1C[C@@H](O)C1 [Compound 133]
R = CC(C)[C@H]1C(=O)Nc2ccccc2N1C(=O)c1ccc(N)nc1 [Compound 82]
S = CCC[C@H]1C(=O)Nc2ccccc2N1C(=O)c1ccncc1 [Compound 11]
T = CC(C)C[C@H]1C(=O)Nc2ccccc2N1C(=O)c1cnn(C)c1 [Compound 68]
q: Sort by AC1.4, descending. Write the labels, ordered according to the request.
a: Q, S, R, T, P
(Q: 1.68 µM, S: 0.97 µM, R: 0.26 µM, T: 0.16 µM, P: 0.08 µM)

I = CCC[C@H]1C(=O)Nc2ccccc2N1C(=O)c1ccc(N(C)C)nc1 [Compound 28]
II = CCC[C@H]1C(=O)Nc2ccccc2N1C(=O)c1ccc(N2CC(F)(F)C2)nc1 [Compound 42]
q: Among I and II , whose measured AC1.4 is the smaller figure? Answer with the label corresponding to your selection.
a: I
(I: 1.42 µM, II: 2.34 µM)

###

- Tested on: rabbit skeletal myofibrils (approximately 90% fast fibers)
- EXPERIMENT NOTES: Activation of fast skeletal myofibrils (PUMA coupled-enzyme ATPase assay)
- Format: biochemical
- CONDITION LABEL: concentration at which the compound increased the enzymatic activity by 40%; calcium at pCa25; PM12 buffer pH 6.8
RESULT TYPE: AC1.4 (µM)

The examples below pair each entry with its known result.
CCC[C@H]1C(=O)Nc2ccccc2N1C(=O)c1ccc2cncn2c1 [Compound 65] | 0.39
CCC[C@H]1C(=O)Nc2ccccc2N1C(=O)c1ccc(N(C)CCC(F)(F)F)nc1 [Compound 44] | 2.61
CC[C@H](C)[C@H]1C(=O)Nc2ccc(F)cc2N1C(N)=O [Compound 113] | 2.01

P = CCC[C@H]1C(=O)Nc2ccccc2N1C(=O)c1ccc[nH]1 [Compound 9]
Q = CCC[C@H]1C(=O)Nc2ccccc2N1C(=O)Nc1ccc(F)cc1 [Compound 58]
q: API: POST /compare with P and Q ; response names the item with higher AC1.4. Answer with the label corresponding to your selection.
a: P
(P: 0.74 µM, Q: 0.26 µM)

###

- System: rabbit skeletal myofibrils (approximately 90% fast fibers)
- EXPERIMENT NOTES: Activation of fast skeletal myofibrils (PUMA coupled-enzyme ATPase assay)
- Type: biochemical
- CONDITION LABEL: concentration at which the compound increased the enzymatic activity by 40%; calcium at pCa25; PM12 buffer pH 6.8
RESULT TYPE: AC1.4 (µM)

CCC[C@H]1C(=O)Nc2ccccc2N1C(=O)c1ccc(N(C)CC)nc1 [Compound 33] | 0.95

A = CCC[C@H]1C(=O)Nc2ccccc2N1C(=O)Nc1cccc(F)c1 [Compound 57]
B = CCC[C@H]1C(=O)Nc2ccccc2N1C(=O)NCc1ccccc1 [Compound 49]
q: API: POST /compare with A and B ; response names the item with higher AC1.4. Answer with the label corresponding to your selection.
a: B

I = CCC[C@H]1C(=O)Nc2ccccc2N1C(=O)c1cccc(F)c1 [Compound 17]
II = CCC[C@H]1C(=O)Nc2ccccc2N1C(=O)c1ccc(N2CC(OC)C2)nc1 [Compound 40]
q: API: POST /compare with I and II ; response names the item with higher AC1.4. Answer with the label corresponding to your selection.
a: II

###

- Test system: rabbit skeletal myofibrils (approximately 90% fast fibers)
- EXPERIMENT NOTES: Activation of fast skeletal myofibrils (PUMA coupled-enzyme ATPase assay)
- Assay type: biochemical
- CONDITION LABEL: concentration at which the compound increased the enzymatic activity by 40%; calcium at pCa25; PM12 buffer pH 6.8
RESULT TYPE: AC1.4 (µM)

CCC[C@H]1C(=O)Nc2ccccc2N1C(=O)c1ccc(N2CCCCC2)nc1 | 2.7
CC[C@H](C)[C@H]1C(=O)Nc2ccccc2N1C(=O)N[C@H]1C[C@H](O)C1 | 0.64
CC[C@H](C)[C@H]1C(=O)Nc2cccnc2N1C(=O)c1ccc(=O)n(C)c1 | 1.03
CCC[C@H]1C(=O)Nc2ccccc2N1C(=O)c1cn(C)nc1C | 0.2
CCNC(=O)N1c2ccccc2NC(=O)[C@@H]1[C@@H](C)CC | 0.78
CC[C@H](C)[C@H]1C(=O)Nc2ncccc2N1C(=O)c1cnn(C)c1 | 0.84
CCC[C@H]1C(=O)Nc2ccccc2N1C(=O)c1cnn(C2CC2)c1 | 0.47
CC[C@H](C)[C@H]1C(=O)Nc2ccccc2N1C(=O)N1CC[C@@H](CO)C1 | 2.77
CC[C@H](C)[C@H]1C(=O)Nc2ccccc2N1C(=O)N1CCCC1 | 1.31
CC[C@H](C)[C@H]1C(=O)Nc2ccccc2N1C(=O)N[C@H]1CCNC1 | 1.53

1 = CC[C@H](C)[C@H]1C(=O)Nc2cnccc2N1C(=O)c1ccc(=O)[nH]c1
2 = CCC[C@H]1C(=O)Nc2ccccc2N1C(=O)Nc1cccc(OC)c1
q: Among 1 and 2 , whose measured AC1.4 is the smaller figure? Answer with the label corresponding to your selection.
a: 2

A = CCC[C@H]1C(=O)Nc2ccccc2N1C(=O)Nc1cnn(C)c1
B = CCC[C@H]1C(=O)Nc2ccccc2N1C(=O)c1ccccc1
q: Among A and B , whose measured AC1.4 is the smaller figure? Answer with the label corresponding to your selection.
a: B
(B: 0.33 µM, A: 1.96 µM)

a = CCC[C@H]1C(=O)Nc2ccccc2N1C(=O)NC1CCCCC1
b = CCC[C@H]1C(=O)Nc2ccccc2N1C(=O)c1ccc(NC(C)=O)nc1
c = CCC[C@H]1C(=O)Nc2ccccc2N1C(=O)c1cccs1
d = CCC[C@H]1C(=O)Nc2cccc(C3CC3)c2N1C(=O)c1ccc(C)nc1
q: Reorder the items by AC1.4, least to greatest. Write the labels, ordered according to the request.
a: c, a, d, b
